pIC50: −log10 of the molar value.
Here is a set of compounds with reported pIC50 for PIK3CD (Human) (UniProt O00329), compiled from the literature.
Measurement label: pIC50

A. C[C@H](Nc1ccc2c(c1F)OCCn1cc(N3C(=O)SC[C@H]3C(F)F)nc1-2)C(N)=O
B. COC(=O)N[C@@H]1CCN([C@H]2CC[C@H](Nc3nc(N4CCOCC4)cc(-n4c(C(F)F)nc5ccccc54)n3)CC2)C1=O
C. C[C@H]1COCCN1c1cc(-n2c(C(F)F)nc3ccccc32)nc(NC[C@H]2CC[C@H](N(C)CC(C)(C)O)CC2)n1
D. COc1ncc(-c2nc(N3CCOCC3)nc3c(CN4CCN(C(C)(C)C(N)=O)CC4)csc23)cc1NS(C)(=O)=O
Rank ascending by pIC50. Response format: the labels, sorted as the prompt asks.
A, B, C, D

###

pIC50: −log10 of the molar value.
Collected set of pIC50 measured with PIK3CD (Human) across studies.

Answered cases to consult:
{"Compound": "CC(Nc1ncnc2[nH]cnc12)c1cc2ccccc2c(=O)n1C1CCN(C)CC1 (centres unmarked)", "pIC50": "> 6.00"}
{"Compound": "C[C@H](NC(=O)c1c(N)nn2cccnc12)c1cc2cccc(OC(F)(F)F)c2c(=O)n1-c1ccccc1", "pIC50": "5.00 to 6.00"}
{"Compound": "COc1ncc(-c2nc(N3CCOCC3)nc3c(CN4CCN(C)CC4)c(C)sc23)cc1NS(C)(=O)=O", "pIC50": 7.76}
{"Compound": "COc1ncc(-c2nc(N3CCOCC3)nc3c(CN4CCC(C5CC5)CC4)c(C)sc23)cc1NS(C)(=O)=O", "pIC50": 8.21}
{"Compound": "C[C@@H]1COCCN1c1cnc2ccc(-c3ccc4oc(N)nc4c3)nc2n1", "pIC50": "> 5.00"}

Fill blank: measured pIC50 of the compound "CN(C)CCNC(=O)c1cccc(Nc2ncc3cc(C#N)c(=O)n(C4CCCC4)c3n2)c1" is ____.
5.99

Please do the same for "CC(C)N1CCN(c2nc([C@H](C)Nc3ncnc4[nH]cnc34)cc3cccc(Cl)c23)CC1" as well.
> 7.00

Same question for "C[C@H](NC(=O)c1cnc2cccnn12)c1cc2cccc(Cl)c2c(=O)n1-c1ccccc1" please.
6.00 to 7.00

###

Here is a set of compounds with reported IC50 for PIK3CD (Human) (UniProt O00329), compiled from the literature.
Measurement label: IC50 (nM)

{"Compound": "Nc1ncnc2c1c(-c1cc(O)c(F)c(F)c1)nn2C1Cc2ccccc2C1", "IC50 (nM)": 3.5}
{"Compound": "N#Cc1cc2cnc(Nc3ccc(N4CCN5CCCC5C4)c(F)c3)nc2n(C2CCCC2)c1=O (centres unmarked)", "IC50 (nM)": 1690}
{"Compound": "CC(C)(C)c1ncc2c(n1)-c1sc(NC(=O)N3CCC[C@@]3(CO)C(N)=O)nc1CC2", "IC50 (nM)": 72}
{"Compound": "COc1ncc(-c2nc(N3CCOCC3)nc3c(CN4CCC(S(C)(=O)=O)CC4)c(C)sc23)cc1NS(C)(=O)=O", "IC50 (nM)": 3.2}

A. CN(C)CCC(=O)N[C@H]1CC[C@H](Nc2nc(N3CCOCC3)cc(-n3c(C(F)F)nc4ccccc43)n2)CC1
B. Nc1ncnc2c1c(-c1ccc(CO)cc1)nn2C1Cc2ccccc2C1
A or B : whose IC50 is greater? Give the label of your selection.
B

###

Published IC50 for UniProt:O00329, assembled from different documents, is shown next.

Answered cases to consult:
{"Molecule": "CC(=O)N1CC(N2CCOc3c(C(C)n4nc(C)c5c(N)ncnc54)cc(Cl)c(C#N)c3C2)C1 (stereo not drawn)", "IC50": "≤ 100 nM"}
{"Molecule": "CC(Nc1ccc2c(c1)OCCn1cc(N3C(=O)OC(C)[C@H]3C(F)F)nc1-2)C(N)=O (stereo in doubt)", "IC50": "213 nM"}
{"Molecule": "COc1cccc(-c2nn(Cc3cc4cccc(C)c4c(=O)n3-c3ccccc3C)c3ncnc(N)c23)c1", "IC50": "< 1000 nM"}
{"Molecule": "CC(=O)N[C@H]1CC[C@H](Nc2nc(N3CCOCC3)nc(-n3c(C(F)F)nc4ccccc43)n2)CC1", "IC50": "23 nM"}
{"Molecule": "CC(=O)N1CCC(n2cnc3ccc(-c4ccc5oc(N)nc5c4)cc3c2=O)CC1", "IC50": "> 10000 nM"}

Quick one: IC50 of COc1ncc(-c2nc(N3CCOCC3)nc3c(CN4CC5CC5C4)c(C)sc23)cc1NS(C)(=O)=O (stereo not drawn) ?
9 nM

Please do the same for "COc1cc(-c2cccc3cc([C@H](C)NC(=O)c4c(N)nn5cccnc45)n(C4CCCCC4)c(=O)c23)ccn1" as well.
> 10000 nM

Record: "N#Cc1cc2ccc(Nc3ccc4c(c3)CNCC4)nc2n(C2CCCC2)c1=O"
> 50000 nM

Now consider "CC1(C)OC(=O)N(c2cc(-c3cnc(N)nc3C(F)(F)F)nc(N3CCOCC3)n2)[C@H]1CO" .
75 nM

"CS(=O)(=O)N1CCN(Cc2csc3c(-c4cccc(O)c4)nc(N4CCOCC4)nc23)CC1" ?
327 nM

Next record, please: Cc1nn(C(C)c2cc(Cl)c(C#N)c3c2OC(C)CN(CC(C)(C)O)C3)c2ncnc(N)c12 (single isomer, unassigned)
≤ 100 nM

Param item: "Cc1nc([C@H](C)Nc2ncnc3[nH]cnc23)cc2cccc(C(=O)N3CCN(C)CC3)c12"
> 10000 nM

And the next one, "CCCS(=O)(=O)Nc1ccc(F)c(C(=O)c2c[nH]c3ncc(-c4cccc(S(=O)(=O)NC)c4)cc23)c1F" ?
≤ 10000 nM

Next up: "C[C@H](NC(=O)c1c(N)nn2cccnc12)c1cc2cccc(NC3CCCCC3)c2c(=O)n1-c1ccccc1"
> 10000 nM

Repeat for the following molecule: "Cc1nccn1-c1cnc2ccc(-c3ccc4oc(N)nc4c3)cc2n1"
< 10000 nM

###

Before we begin, note that these pIC50 values for UniProt:O00329 originate from several publications.
pIC50: −log10 of the molar value.
Measurement label: pIC50

Examples from the recorded data:
{"Molecule": "COc1ncc(-c2nc(N3CCOCC3)nc3c(OC4CN(C5CCOCC5)C4)cc(F)cc23)cc1NS(C)(=O)=O", "pIC50": 7.80}
{"Molecule": "CS(=O)(=O)N1CCC[C@H](Nc2ncc3cc(C#N)c(=O)n(C4CCCC4)c3n2)C1", "pIC50": 6.08}

P. Cc1nc2cc(-c3ccc4c(c3)CN(c3nc(CN(C)C)nc(C)c3C(C)C)CCO4)cnc2[nH]1
Q. N#Cc1cc2cnc(Nc3ccc4c(c3)CCNC4)nc2n(C2CC3CC3C2)c1=O (stereo not shown)
Smaller pIC50 value, P vs Q ? Indicate which entry you chose by stating its label.
P
(P: 6.08, Q: 6.38)

1. CC(C)(O)C1CCN(Cc2csc3c(-c4ccnc5[nH]ccc45)nc(N4CCOCC4)nc23)CC1
2. CC(C)(O)[C@@H]1CCCN1C1CCC(COc2cc(-n3c(C(F)F)nc4ccccc43)nc(N3CCOCC3)n2)CC1 (stereo partly shown)
3. C=CCN(C(C)COC)[C@H]1CC[C@H](CNc2nc(N3CCOC[C@@H]3C)cc(-n3c(C(F)F)nc4ccccc43)n2)CC1 (stereo partly shown)
4. CC(c1nc2cccnc2c(=O)n1-c1ccccc1)n1cnc2c(N)ncnc21 (stereo not shown)
5. COCCN(CC1CC1)[C@H]1CC[C@H](CNc2nc(N3CCOCC3)cc(-n3c(C(F)F)nc4ccccc43)n2)CC1
Highest pIC50 first, then in falling order down to the smallest. In your reply, arrange the labels in the requested order.
5, 3, 2, 1, 4

###

pIC50: −log10 of the molar value.
Multi-source literature compilation: pIC50 on PIK3CD (Human) (UniProt O00329).

{"Molecule": "C[C@H](Nc1ncnc2scnc12)c1cc2cccc(Cl)c2c(C(=O)N(C)C)n1", "Study system": "PIK3CD (Human) (UniProt O00329)", "pIC50": "> 6.00"}
{"Molecule": "Cc1cccc2cc(Cn3nc(C#C[C@@H](C)O)c4c(N)ncnc43)n(-c3ccccc3F)c(=O)c12", "Study system": "PIK3CD (Human) (UniProt O00329)", "pIC50": "> 7.00"}
{"Molecule": "COc1cccc2c(C)c([C@H](C)NC(=O)c3c(N)nn4cccnc34)n(-c3ccccc3)c(=O)c12", "Study system": "PIK3CD (Human) (UniProt O00329)", "pIC50": "5.00 to 6.00"}
{"Molecule": "CC(=O)Nc1ccc(-c2cccc3cc([C@H](C)NC(=O)c4c(N)nn5cccnc45)n(-c4ccccc4)c(=O)c23)cc1", "Study system": "PIK3CD (Human) (UniProt O00329)", "pIC50": "5.00 to 6.00"}
{"Molecule": "Nc1ncnc2c1c(-c1cccc(O)c1)nn2Cc1cc2cccc(F)c2c(=O)n1-c1ccccc1F", "Study system": "PIK3CD (Human) (UniProt O00329)", "pIC50": "> 6.00"}
{"Molecule": "CCn1cnc2ccc(-c3ccc4oc(N)nc4c3)cc2c1=O", "Study system": "PIK3CD (Human) (UniProt O00329)", "pIC50": "> 5.00"}
{"Molecule": "C=CC(=O)N1CC(n2nc(-c3cc(O)cc(F)c3)c3c(N)ncnc32)Cc2cc(C)ccc21 (centres unmarked)", "Study system": "PIK3CD (Human) (UniProt O00329)", "pIC50": 7.47}

Next:
Quick check: pIC50 of "Nc1ncc(-c2cc(N3C[C@H](CO)OC3=O)nc(N3CCOCC3)n2)c(C(F)(F)F)n1" ?
7.64
